- System: Zymoseptoria tritici
- Experiment: Test E: wheat leaf blotch, preventive spray on wheat seedlings
- Setup Conditions: 10 ppm; wheat leaf blotch; 100 = 100% disease control, 0 = no control
Value Type: Test E rating (% disease control) (%)
Response body: numeric value in %, unit text excluded.

Check out these entries, answers already filled in.
[ask] Return the recorded Test E rating (% disease control) value; entry: CC(C)(C)C(O)(Cn1cncn1)C1=NOC(COc2ccc(C(F)(F)F)cc2)C1 (single isomer, unassigned) [Compound 81]
[reply] 95

[ask] Return the recorded Test E rating (% disease control) value; entry: OC(Cn1cncn1)(C1=NOC(COc2ccc(Cl)cc2)C1)c1ccc(Cl)cc1 (single isomer, unassigned) [Compound 62]
[reply] 0

New cases:
[ask] Return the recorded Test E rating (% disease control) value; entry: CCC(C)(C)C(O)(Cn1cncn1)C1=NOC(COc2ccc(Br)cc2)C1 (single isomer, unassigned) [Compound 11]
[reply] 88

----------
- System: Stagonospora nodorum
- Experiment: Test D: wheat glume blotch, preventive spray on wheat seedlings
- Setup Conditions: 10 ppm test solution; 100 = 100% disease control, 0 = no control relative to controls
Quick list: Test D disease control rating per entry.
Response body: numeric value in %, unit text excluded.

Check out these entries, answers already filled in.
[ask] Return the recorded Test D disease control rating value; entry: CC(C)(C)C(O)(Cn1cncn1)C1=NOC(COc2ccc(-c3ccccc3)cc2)C1 (single isomer, unassigned) [Compound 229]
[reply] 0

[ask] Return the recorded Test D disease control rating value; entry: CCC(C)(C)C(O)(Cn1cncn1)C1=NOC(COc2ccc(C(F)(F)F)cc2)C1 (single isomer, unassigned) [Compound 262]
[reply] 0

[ask] Return the recorded Test D disease control rating value; entry: CC(C)(C)C(O)(Cn1cncn1)C1=NOC(COc2cccc(Br)c2)C1 (single isomer, unassigned) [Compound 233]
[reply] 100

[ask] Return the recorded Test D disease control rating value; entry: CC(C)(C)C(O)(Cn1cncn1)C1=NOC(CCOc2ccc(F)cc2)C1 (single isomer, unassigned) [Compound 270]
[reply] 99

[ask] Return the recorded Test D disease control rating value; entry: CCC(C)(C)C(O)(Cn1cncn1)C1=NOC(COc2ccc(C(F)(F)F)cc2)C1 (single isomer, unassigned) [Compound 261]
[reply] 100

[ask] Return the recorded Test D disease control rating value; entry: CC(C)(C)C(O)(Cn1cncn1)C1=NOC(COc2cccc(C(F)(F)F)c2)C1 (single isomer, unassigned) [Compound 253]
[reply] 99

[ask] Return the recorded Test D disease control rating value; entry: CC(C)(C)C(O)(Cn1cncn1)C1=NOC(COc2ccc(-c3ccccc3)cc2)C1 (single isomer, unassigned) [Compound 228]
[reply] 0

[ask] Return the recorded Test D disease control rating value; entry: CC1(C(O)(Cn2cncn2)C2=NOC(COc3ccc(Br)cc3)C2)CC1 (single isomer, unassigned) [Compound 239]
[reply] 98

New cases:
[ask] Return the recorded Test D disease control rating value; entry: OC(Cn1cncn1)(C1=NOC(COc2ccc(Cl)cc2)C1)C1CCCCC1 (single isomer, unassigned) [Compound 266]
[reply] 100

[ask] Return the recorded Test D disease control rating value; entry: CC(C)(C)C(O)(Cn1cncn1)C1=NOC(COc2cccc(Br)c2)C1 (single isomer, unassigned) [Compound 232]
[reply] 99

[ask] Return the recorded Test D disease control rating value; entry: CC1(COc2ccc(Cl)cc2)CC(C(O)(Cn2cncn2)C(C)(C)C)=NO1 (single isomer, unassigned) [Compound 217]
[reply] 92

[ask] Return the recorded Test D disease control rating value; entry: CC(C)(C)C(O)(Cn1cncn1)C1=NOC(COc2ccc(Cl)cc2)C1 (single isomer, unassigned) [Compound 242]
[reply] 0

[ask] Return the recorded Test D disease control rating value; entry: CC(C)(C)CC(O)(Cn1cncn1)C1=NOC(Cc2ccc(C(F)(F)F)cc2)C1 (single isomer, unassigned) [Compound 227]
[reply] 73

----------
- Tested on: Erysiphe graminis f sp. tritici
- Experiment: Test G: wheat powdery mildew, preventive spray on wheat seedlings
- Setup Conditions: 10 ppm test solution; 100 = 100% disease control, 0 = no control relative to controls
Value Type: Test G disease control rating (%)
Response body: numeric value in %, unit text excluded.

Check out these entries, answers already filled in.
[ask] Return the recorded Test G disease control rating value; entry: CC1(C(O)(Cn2cncn2)C2=NOC(COc3ccc(Cl)cc3)C2)CC1 (single isomer, unassigned) [Compound 224]
[reply] 100

[ask] Return the recorded Test G disease control rating value; entry: CC(C)(C)C(O)(Cn1cncn1)C1=NOC(COc2cccc(Cl)c2)C1 (single isomer, unassigned) [Compound 230]
[reply] 99

[ask] Return the recorded Test G disease control rating value; entry: CC(C)(C)C(O)(Cn1cncn1)C1=NOC(COc2ccc(Cl)cc2Cl)C1 (single isomer, unassigned) [Compound 256]
[reply] 99

# ---- query compound ----
[ask] Return the recorded Test G disease control rating value; entry: CC(C)(C)C(O)(Cn1cncn1)C1=NOC(CCOc2ccc(F)cc2)C1 (single isomer, unassigned) [Compound 270]
[reply] 100

----------
- Test system: Erysiphe graminis f sp. tritici
- Experiment: Test G: wheat powdery mildew, preventive spray on wheat seedlings
- Setup Conditions: 10 ppm test solution; 100 = 100% disease control, 0 = no control relative to controls
Value Type: Test G disease control rating (%)
Response body: numeric value in %, unit text excluded.

Check out these entries, answers already filled in.
[ask] Return the recorded Test G disease control rating value; entry: COc1ccc(OCC2CC(C(O)(Cn3cncn3)C(C)(C)C)=NO2)cc1 (single isomer, unassigned) [Compound 259]
[reply] 99

[ask] Return the recorded Test G disease control rating value; entry: CC(C)(C)C(O)(Cn1cncn1)C1=NOC(COc2ccc(-c3ccccc3)cc2)C1 (single isomer, unassigned) [Compound 229]
[reply] 98

New cases:
[ask] Return the recorded Test G disease control rating value; entry: CC(C)(C)C(O)(Cn1cncn1)C1=NOC(COCc2ccc(Cl)cc2)C1 (single isomer, unassigned) [Compound 263]
[reply] 99

----------
- Tested on: Erysiphe graminis f sp. tritici
- Experiment: Test G: wheat powdery mildew, preventive spray on wheat seedlings
- Setup Conditions: 10 ppm; wheat powdery mildew; 100 = 100% disease control, 0 = no control
Value Type: Test G rating (% disease control) (%)
Response body: numeric value in %, unit text excluded.

Check out these entries, answers already filled in.
[ask] Return the recorded Test G rating (% disease control) value; entry: OC(Cn1cncn1)(C1=NOC(Cc2ccc(Br)cc2)C1)c1ccc(Cl)cc1 (single isomer, unassigned) [Compound 54]
[reply] 99

[ask] Return the recorded Test G rating (% disease control) value; entry: C[S+]([O-])c1ccc(C2CC(C(O)(Cn3cncn3)c3ccc(Cl)cc3)=NO2)cc1 (single isomer, unassigned) [Compound 112]
[reply] 69

[ask] Return the recorded Test G rating (% disease control) value; entry: CC(C)(C)C(O)(Cn1cncn1)C1=NOC(Cc2ccc(Cl)c(Cl)c2)C1 (single isomer, unassigned) [Compound 22]
[reply] 99

# ---- query compound ----
[ask] Return the recorded Test G rating (% disease control) value; entry: CC(C)(C)CC(O)(Cn1cncn1)C1=NOC(COc2ccc(Br)cc2)C1 (single isomer, unassigned) [Compound 170]
[reply] 99

----------
- Tested on: Puccinia recondita f sp. tritici
- Experiment: Test F: wheat leaf rust, preventive spray on wheat seedlings
- Setup Conditions: 10 ppm test solution; 100 = 100% disease control, 0 = no control relative to controls
Value Type: Test F disease control rating
Give your result as the value with the unit written after it.

Check out these entries, answers already filled in.
[ask] Give reported Test F disease control rating for CC1(COc2ccc(Cl)cc2)CC(C(O)(Cn2cncn2)C(C)(C)C)=NO1 (single isomer, unassigned) [Compound 216] (Puccinia recondita f sp. tritici)
[reply] 100%

[ask] Give reported Test F disease control rating for CC1(C(O)(Cn2cncn2)C2=NOC(COc3ccc(Cl)cc3)C2)CC1 (single isomer, unassigned) [Compound 224] (Puccinia recondita f sp. tritici)
[reply] 100%

[ask] Give reported Test F disease control rating for CC(C)(C)C(O)(Cn1cncn1)C1=NOC(COc2ccc(Cl)cc2Cl)C1 (single isomer, unassigned) [Compound 256] (Puccinia recondita f sp. tritici)
[reply] 100%

[ask] Give reported Test F disease control rating for OC(Cn1cncn1)(C1=NOC2c3ccccc3CCC12)c1ccc(Cl)cc1 (stereo not drawn) [Compound 222] (Puccinia recondita f sp. tritici)
[reply] 100%

[ask] Give reported Test F disease control rating for CC(C)(C)C(O)(Cn1cnnn1)C1=NOC(COc2ccc(Cl)cc2)C1 (stereo not drawn) [Compound 246] (Puccinia recondita f sp. tritici)
[reply] 100%

New cases:
[ask] Give reported Test F disease control rating for CC(C)(C)C(O)(Cn1cncn1)C1=NOC(COc2ccc(Cl)cc2)C1 (single isomer, unassigned) [Compound 243] (Puccinia recondita f sp. tritici)
[reply] 99%

[ask] Give reported Test F disease control rating for OC(COc1ccc(Cl)cc1)(Cn1cncn1)C1=NOC(c2ccc(Cl)cc2)C1 (stereo not drawn) [Compound 273] (Puccinia recondita f sp. tritici)
[reply] 98%

[ask] Give reported Test F disease control rating for CC(C)(C)CC(O)(Cn1cncn1)C1=NOC(COc2ccc(F)cc2)C1 (single isomer, unassigned) [Compound 244] (Puccinia recondita f sp. tritici)
[reply] 100%

[ask] Give reported Test F disease control rating for CC(C)(C)C(O)(Cn1cncn1)C1=NOC(COc2cccc(C(F)(F)F)c2)C1 (single isomer, unassigned) [Compound 253] (Puccinia recondita f sp. tritici)
[reply] 100%

[ask] Give reported Test F disease control rating for OC(Cn1cncn1)(C1=NOC(COc2ccc(Cl)cc2)C1)C1CCCCC1 (single isomer, unassigned) [Compound 265] (Puccinia recondita f sp. tritici)
[reply] 100%

[ask] Give reported Test F disease control rating for CC(C)(C)C(O)(Cn1cncn1)C1=NOC(COc2ccc(Cl)c(Cl)c2)C1 (single isomer, unassigned) [Compound 257] (Puccinia recondita f sp. tritici)
[reply] 100%

[ask] Give reported Test F disease control rating for CC(C)(C)C(O)(Cn1cncn1)C1=NOC(COCc2ccc(Cl)cc2)C1 (single isomer, unassigned) [Compound 263] (Puccinia recondita f sp. tritici)
[reply] 87%
